Listed molecules paired with reported cytotoxicity
# assay-comment: cytotoxicity in HPDE-C7 cells, cell-based, fluorescence, HTS (AID 430);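 further: cells exposed to compound for 48 hours before viability readout; 0% = vehicle and 100% = reference cytotoxic drug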
# settings: HPDE-C7 pancreatic duct cells viability, at 10 µM, active compounds read high
The campaign covered roughly 63,000 compounds. About 1,100 (1.7%) were called active. For the sample, actives were picked, then their nearest neighbours and some compounds at random. Results with a measured potency or affinity are listed apart.

Consider the worked cases shown below.
{"molecule": "O=C(CSc1nnc(-c2cc3ccccc3cc2O)n1Cc1ccco1)c1ccc(F)cc1", "quantity": "cytotoxicity", "result": "-5.2% (inactive)"}
{"molecule": "CCCCNC(=O)NCC(=O)Nc1ccc(F)c(F)c1", "quantity": "cytotoxicity", "result": "-4% (inactive)"}
{"molecule": "O=C(c1ccncc1)N1CCN(C(=O)c2cccs2)CC1", "quantity": "cytotoxicity", "result": "-5.3% (inactive)"}
{"molecule": "CCOC(=O)N1CCN(CC(=O)Nc2cc(OCC)ccc2OCC)CC1", "quantity": "cytotoxicity", "result": "-9.8% (inactive)"}
{"molecule": "COc1ccc(C(=O)CSc2nnc(-c3ccccn3)n2Cc2ccco2)cc1", "quantity": "cytotoxicity", "result": "-5% (inactive)"}

(Q) Need cytotoxicity, item CCC(c1nnnn1C1CCCC1)N(Cc1cccs1)Cc1cc2cc(C)ccc2[nH]c1=O (stereo not drawn)
(A) 56.4% (active)

(Q) cytotoxicity for `CCOc1ccc2[nH]c(=O)c(CN(Cc3cccs3)Cc3nnnn3C(C)(C)C)cc2c1` ?
(A) 31.8% (inactive)
